Taken from patent US20210238173A1.

Assay: Metabolic stability in human liver microsomes
Type: in vitro ADME
measuredAttribute: % remaining @ 40 min (%)

Here is how some compounds turned out for % remaining @ 40 min.
C=CC(=O)Nc1cccc(-c2n[nH]c3cc(Cl)ccc23)c1	0
C=CC(=O)Nc1cc(C(=O)NC)cc(-c2n[nH]c3ccccc23)c1	38
C=CC(=O)Nc1cccc(-c2n[nH]c3ccccc23)c1	0

1. C=CC(=O)Nc1cccc(-c2n[nH]c3cc(Br)ccc23)c1
2. C=CC(=O)Nc1cccc(-c2n[nH]c3c(Cl)cccc23)c1
Consider entries 1 and 2 . Which has the numerically lower % remaining @ 40 min? When you have decided, please share the label of that item. 1
(1: 0%, 2: 3%)

====

Assay: Metabolic stability in human liver microsomes
Type: in vitro ADME
measuredAttribute: % remaining @ 40 min (%)

C=CC(=O)Nc1cc(-c2n[nH]c3ccccc23)ccc1C	11
C=CC(=O)Nc1cc(C#N)cc(-c2n[nH]c3ccccc23)c1	0

1. C=CC(=O)Nc1cc(C#N)cc(-c2n[nH]c3cc(C)ccc23)c1
2. C=CC(=O)Nc1cccc(-c2n[nH]c3c2COCC3)c1
3. C=CC(=O)Nc1cccc(-c2n[nH]c3c2CC(C)(C)CC3)c1
Form: Sort by [% remaining @ 40 min] Order [ ascending ] Enter labels, ranked according to the request. 1, 2, 3
(1: 0%, 2: 13%, 3: 20%)

====

Test: Metabolic stability in mouse liver microsomes
Assay type: in vitro ADME
measuredAttribute: % remaining @ 40 min (%)

// worked examples, % remaining @ 40 min included
C=CC(=O)Nc1cc(-c2n[nH]c3ccccc23)ccc1C	0
C=CC(=O)Nc1cccc(-c2n[nH]c3c2CCCC3)c1	0

I. C=CC(=O)Nc1cc(C(=O)NC)cc(-c2n[nH]c3ccccc23)c1
II. C=CC(=O)Nc1cccc(-c2n[nH]c3c(Cl)cccc23)c1
III. C=CC(=O)Nc1cc(C(=O)O)cc(-c2n[nH]c3ccccc23)c1
rank_up(items): orders items by reported % remaining @ 40 min in ascending numerical order. // ordering of labels required in reply II, I, III
(II: 0%, I: 3%, III: 100%)

====

Tested on: primary mouse B-cells
Assay: Primary B-cell activation (CD86+ FACS) in response to LPS
Assay type: cell-based
Details: full dose response
measuredAttribute: pIC50
# log scale: pIC50 equals minus log10 of the concentration in mol/L

Endpoint output: pIC50 of C=CC(=O)Nc1cc(C(=O)NC)cc(-c2n[nH]c3ccccc23)c1 . Value? 5.31

====

Test: Metabolic stability in mouse liver microsomes
Assay type: in vitro ADME
measuredAttribute: Halflife (min)

C=CC(=O)Nc1cc(C(=O)NC)cc(-c2n[nH]c3ccccc23)c1	8
COc1cc(OC)cc(C(C#N)(CCCN(C)CCc2ccc(OC)c(OC)c2)C(C)C)c1 (stereo not shown) [REF1250, reference compound]	6

====

Target: MKK7 (Homo sapiens)
Construct: purchased Nanosyn (contract assay)
Sequence (O14733 whole entry): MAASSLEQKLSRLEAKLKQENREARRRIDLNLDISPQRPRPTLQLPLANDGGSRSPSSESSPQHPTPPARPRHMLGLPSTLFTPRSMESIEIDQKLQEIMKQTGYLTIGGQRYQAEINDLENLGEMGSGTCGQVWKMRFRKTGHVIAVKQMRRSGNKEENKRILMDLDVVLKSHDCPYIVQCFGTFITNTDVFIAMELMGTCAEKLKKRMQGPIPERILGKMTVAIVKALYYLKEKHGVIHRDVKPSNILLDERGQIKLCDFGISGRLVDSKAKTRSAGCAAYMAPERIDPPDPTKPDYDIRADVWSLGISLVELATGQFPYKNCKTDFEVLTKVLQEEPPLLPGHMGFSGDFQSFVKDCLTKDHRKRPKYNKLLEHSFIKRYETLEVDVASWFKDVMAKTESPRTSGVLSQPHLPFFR
Experiment: In vitro kinase activity assay for MKK7 (Nanosyn)
Format: biochemical
Conditions: read-out: MKK7 IC50 in vitro
measuredAttribute: IC50 (nM)

C=CC(=O)Nc1cc(C#N)cc(-c2n[nH]c3cc(C)ccc23)c1 [GO108]	2
C=CC(=O)Nc1cccc(-c2n[nH]c3c2COCC3)c1 [GO55]	64

a. C=CC(=O)Nc1cccc(-c2n[nH]c3c2CN(C(=O)OC(C)(C)C)CC3)c1 [GO61]
b. C=CC(=O)Nc1cccc(-c2n[nH]c3c2CCC3)c1 [GO49]
c. C=CC(=O)Nc1cccc(-c2n[nH]c3c([N+](=O)[O-])cccc23)c1 [GO29]
d. C=CC(=O)Nc1cccc(-c2n[nH]c3cc(Cl)ccc23)c1 [GO106]
Order the records by IC50, with each subsequent value no larger than the one before. Rank the items, then write their labels in that order. a, b, c, d
